# Test system: rice (cultivar: Jikkoku)
# Protocol Notes: Barrier to growth of rice (phytotoxicity, Example 18)
# Type: in vivo
# Condition Summary: untreated plant length set as 100; 0.2 mg/mL acetone solution diluted 10-fold, 0.25 mL per 1 mL of soil; first leaf stage; comparative compounds (Table 38)
Listing: Ratio of plant length relative to untreated plant length of selected compounds
Endpoint Name: Ratio of plant length relative to untreated plant length

>  <Chemical Structure>
O=C(O)c1cc(Cl)nc(Cl)c1

>  <Test Value>
49

$$$$
>  <Chemical Structure>
O=C(NCCc1ccccc1)c1cc(Cl)nc(Cl)c1

>  <Test Value>
45

$$$$
>  <Chemical Structure>
C#CCOC(=O)c1cc(Cl)nc(Cl)c1

>  <Test Value>
52

$$$$
>  <Chemical Structure>
O=C(COC(=O)c1cc(Cl)nc(Cl)c1)c1ccccc1

>  <Test Value>
64

$$$$
>  <Chemical Structure>
O=C(OCc1ccc(Cl)nc1)c1cc(Cl)nc(Cl)c1

>  <Test Value>
66

$$$$
